Each recorded value in this set is attributed to patent US10710980B2.

- Test target: ALK1 (aa166-493) (Homo sapiens (Human), UniProt P37023)
- Sequence (P37023 166-493): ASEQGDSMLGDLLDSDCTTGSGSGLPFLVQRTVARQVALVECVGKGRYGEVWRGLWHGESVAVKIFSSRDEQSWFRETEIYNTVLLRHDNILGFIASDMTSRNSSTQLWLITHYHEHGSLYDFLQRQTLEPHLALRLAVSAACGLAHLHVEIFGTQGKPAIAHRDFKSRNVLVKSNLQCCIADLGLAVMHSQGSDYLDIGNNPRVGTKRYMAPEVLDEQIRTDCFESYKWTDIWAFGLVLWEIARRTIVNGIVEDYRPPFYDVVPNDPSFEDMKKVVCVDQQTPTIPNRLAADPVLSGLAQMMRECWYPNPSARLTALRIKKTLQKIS
pIC50: −log10 of the molar value.
Measured parameter: pIC50

Mol smiles: Nc1ncc(-c2ccc([C@@]34C[C@@H]3CN(C3CCOCC3)C4)cc2)cc1C(=O)N[C@H]1CC[C@@H](O)CC1
Quantitative readout: 6.60
//
Mol smiles: Nc1ncc(-c2ccc([C@]34C[C@H]3CN(CCF)C4)cc2)cc1C(=O)N[C@H]1CC[C@H](O)CC1
Quantitative readout: 6.82
//
Mol smiles: CS(=O)(=O)N1CCC(N2C[C@H]3C[C@@]3(c3ccc(-c4cnc(N)c(C(=O)N[C@H]5CC[C@H](O)CC5)c4)cc3)C2)CC1
Quantitative readout: 7.12
//
Mol smiles: Nc1ncc(-c2ccc([C@@]34C[C@@H]3CN(C3CCOCC3)C4)cc2)cc1C(=O)NC12CC(CO)(C1)C2
Quantitative readout: 6.68
//
Mol smiles: COCCN1C[C@@H]2C[C@]2(c2ccc(-c3cnc(N)c(C(=O)NC45CCC(O)(CC4)CC5)c3)cc2)C1
Quantitative readout: 6.71
//
Mol smiles: Nc1ncc(-c2ccc([C@@]34C[C@@H]3CN(CCF)C4)cc2)cc1C(=O)N[C@H]1CC[C@H](O)CC1
Quantitative readout: 6.92
//
Mol smiles: C[C@]1(O)CC[C@H](NC(=O)c2cc(-c3ccc([C@@]45C[C@@H]4CN(C4CCC(F)(F)CC4)C5)cc3)cnc2N)CC1
Quantitative readout: 5.80
//
Mol smiles: Nc1ncc(-c2ccc([C@]34C[C@H]3CN(C3CCOCC3)C4)cc2)cc1C(=O)N[C@H]1CC[C@H](O)CC1
Quantitative readout: 6.66

(1) Nc1ncc(-c2ccc([C@@]34C[C@@H]3CN(C(CF)CF)C4)cc2)cc1C(=O)N[C@H]1CC[C@H](O)CC1
(2) C[C@H](c1ccc(-c2cnc(N)c(C(=O)N[C@H]3CC[C@H](O)CC3)c2)c(Cl)c1)N1CC2(COC2)C1
Given the listed records, identify the one among 1 and 2 with higher pIC50. Output the label that corresponds to your choice.
1
(1: 6.66, 2: 6.20)

(P) C[C@@H](c1ccc(-c2cnc(N)c(C(=O)N[C@H]3CC[C@H](O)CC3)c2)cc1)N1CC2(COC2)C1
(Q) Nc1ncc(-c2cccc(C(=O)N3CCOCC3)c2)cc1C(=O)NC1CCCCC1
Given the listed records, identify the one among P and Q with higher pIC50. Output the label that corresponds to your choice.
P
(P: 6.76, Q: 4.69)

(a) CC(C)N1C[C@@H]2C[C@]2(c2ccc(-c3cnc(N)c(C(=O)N[C@H]4CC[C@@H](O)CC4)c3)cc2)C1
(b) Nc1ncc(-c2ccc([C@@]34C[C@@H]3CN(CCOCC(F)(F)F)C4)cc2)cc1C(=O)N[C@H]1CC[C@H](O)CC1
Which record shows the lower pIC50: the first, a , or the second, b ? Output the label that corresponds to your choice.
a
(a: 6.31, b: 6.51)

----------
pIC50: −log10 of the molar value.
Let's go through some recorded pIC50 values for ALK3 (aa198-525) (Homo sapiens (Human)) together.
Measured parameter: pIC50

Compound: Nc1ncc(-c2ccc(CN3CC4(CCC4)C3)cc2)cc1C(=O)N[C@H]1CC[C@H](O)CC1 [Example 23]
pIC50: 5.80

Compound: C[C@]1(O)CC[C@H](NC(=O)c2cc(-c3ccc([C@]45C[C@H]4CN(C4CCC(F)(F)CC4)C5)cc3)cnc2N)CC1 [Example 58]
pIC50: 5.43

Compound: C[C@H](c1ccc(-c2cnc(N)c(C(=O)N[C@H]3CC[C@H](O)CC3)c2)c(Cl)c1)N1CC2(COC2)C1 [Example 55]
pIC50: 5.61

Compound: Nc1ncc(-c2cccc(C(=O)N3CCN(CCO)CC3)c2)cc1C(=O)NC1CCCCC1 [Example 88]
pIC50: 4.64

Compound: CC#CCN1C[C@H]2C[C@@]2(c2ccc(-c3cnc(N)c(C(=O)N[C@H]4CC[C@H](O)CC4)c3)cc2)C1 [Example 60]
pIC50: 6.00

Compound: Nc1ncc(-c2ccc([C@]34C[C@H]3CN(C3COC3)C4)cc2)cc1C(=O)NC12CCC(O)(CC1)CC2 [Example 63]
pIC50: 5.74

Compound: Nc1ncc(-c2ccc([C@]34C[C@H]3CN(C3COC3)C4)cc2)cc1C(=O)N[C@H]1CC[C@H](O)CC1 [Example 26]
pIC50: 5.77

Compound: CC(C)N1C[C@@H]2C[C@]2(c2ccc(-c3cnc(N)c(C(=O)NC45CC(CO)(C4)C5)c3)cc2)C1 [Example 16]
pIC50: 5.85

Compound: Nc1ncc(-c2ccc([C@]34C[C@H]3CN(C3CCOCC3)C4)cc2)cc1C(=O)NC12CC(CO)(C1)C2 [Example 28]
pIC50: 6.28

Compound: CS(=O)(=O)N1CCC(N2C[C@H]3C[C@@]3(c3ccc(-c4cnc(N)c(C(=O)N[C@H]5CC[C@H](O)CC5)c4)cc3)C2)CC1 [Example 1]
pIC50: 6.51

(1) Nc1ncc(-c2ccc([C@]34C[C@H]3CN(CC(F)(F)F)C4)cc2)cc1C(=O)N[C@H]1CC[C@H](O)CC1 [Example 67]
(2) C[C@@H]1CCCN1Cc1ccc(-c2cnc(N)c(C(=O)N[C@H]3CC[C@](C)(O)CC3)c2)cc1F [Example 46]
(3) C[C@@H](c1ccc(-c2cnc(N)c(C(=O)N[C@H]3CC[C@H](O)CC3)c2)cc1)N1CC2(COC2)C1 [Example 4]
(4) Nc1ncc(-c2ccc([C@@]34C[C@@H]3CN(C3CCS(=O)(=O)CC3)C4)cc2)cc1C(=O)N[C@H]1CC[C@H](O)CC1 [Example 44]
(5) CC(F)(F)CN1C[C@@H]2C[C@]2(c2ccc(-c3cnc(N)c(C(=O)N[C@H]4CC[C@H](O)CC4)c3)cc2)C1 [Example 76]
Could you please order the items by pIC50, going from the lowest number to the highest? Rank them, then answer with their labels in that order.
2, 5, 1, 3, 4
(2: 4.84, 5: 5.49, 1: 5.72, 3: 6.08, 4: 6.37)

----------
- Test target: ALK3 (aa198-525) (Homo sapiens (Human))
- Sequence (P36894 198-525): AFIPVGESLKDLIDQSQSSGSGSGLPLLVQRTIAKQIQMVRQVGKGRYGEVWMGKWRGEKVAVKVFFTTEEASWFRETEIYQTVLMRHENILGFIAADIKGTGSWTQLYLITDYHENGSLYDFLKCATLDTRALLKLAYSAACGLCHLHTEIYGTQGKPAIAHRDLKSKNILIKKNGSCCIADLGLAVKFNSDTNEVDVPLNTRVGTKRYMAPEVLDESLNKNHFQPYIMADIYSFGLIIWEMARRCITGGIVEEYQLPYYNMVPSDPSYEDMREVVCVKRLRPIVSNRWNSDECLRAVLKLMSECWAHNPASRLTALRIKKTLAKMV
pIC50: −log10 of the molar value.
Measured parameter: pIC50

Compound: CN1CCN(C(=O)c2ccc(-c3cnc(N)c(C(=O)NC4CCCCC4)c3)cc2)CC1 [Example 45]
Test target: ALK3 (aa198-525) (Homo sapiens (Human))
pIC50: 5.80

(a) C#CCN1C[C@H]2C[C@@]2(c2ccc(-c3cnc(N)c(C(=O)N[C@H]4CC[C@H](O)CC4)c3)cc2)C1 [Example 54]
(b) CC(C)N1C[C@H]2C[C@@]2(c2ccc(-c3cnc(N)c(C(=O)N[C@H]4CC[C@H](O)CC4)c3)cc2)C1 [Example 2]
Given the listed records, identify the one among a and b with higher pIC50. Output the label that corresponds to your choice.
a

----------
- System: BMP response element (BRE) luciferase reporter in HuH7 cells, BMP6 stimulated
- Experimental protocol: BMP signaling reporter gene assay
- Type: cell-based
- Conditions: Homo sapiens, Huh-7; HuH7 BRE-luciferase, BMP6 100 ng/ml, 5 hours; read-out: MSD BMP RGA IC50
Measured parameter: IC50 (nM)

The following compounds have reported results that may help.
Compound: Nc1ncc(-c2ccc([C@@]34C[C@@H]3CN(C3CCOCC3)C4)cc2)cc1C(=O)N[C@@H]1CC[C@@H](O)[C@@H](F)C1 [Example 21]
Units label: nM
Quantitative readout: 35
//
Compound: CC(F)(F)CN1C[C@H]2C[C@@]2(c2ccc(-c3cnc(N)c(C(=O)N[C@H]4CC[C@H](O)CC4)c3)cc2)C1 [Example 50]
Units label: nM
Quantitative readout: 825
//
Compound: Nc1ncc(-c2ccc([C@@]34C[C@@H]3CN(C3CCC(F)(F)CC3)C4)cc2)cc1C(=O)NC12CCC(O)(CC1)CC2 [Example 80]
Units label: nM
Quantitative readout: 58
//
Compound: C[C@]1(O)CC[C@H](NC(=O)c2cc(-c3ccc([C@]45C[C@H]4CN(C4CCC(F)(F)CC4)C5)cc3)cnc2N)CC1 [Example 58]
Units label: nM
Quantitative readout: 143
//
Compound: [2H][C@]1(O)CC[C@H](NC(=O)c2cc(-c3ccc([C@]45C[C@H]4CN(C(C)C)C5)cc3)cnc2N)CC1 [Example 78]
Units label: nM
Quantitative readout: 220

(I) C[C@@H]1CCCN1Cc1ccc(-c2cnc(N)c(C(=O)N[C@H]3CC[C@H](O)CC3)c2)cc1 [Example 31]
(II) CC#CCN1C[C@@H]2C[C@]2(c2ccc(-c3cnc(N)c(C(=O)N[C@H]4CC[C@H](O)CC4)c3)cc2)C1 [Example 37]
Which record shows the lower IC50: the first, I , or the second, II ? Output the label that corresponds to your choice.
II
(II: 37 nM, I: 115 nM)

(I) Nc1ncc(-c2ccc(N3CCNCC3)cc2F)cc1C(=O)N[C@H]1CC[C@H](O)CC1 [Example 29]
(II) Nc1ncc(-c2ccc(OCCCN3CCCCC3)cc2)cc1C(=O)NC1CCCCC1 [Example 43]
Given the listed records, identify the one among I and II with higher IC50. Output the label that corresponds to your choice.
I

(a) C[C@]1(O)CC[C@H](NC(=O)c2cc(-c3ccc([C@@]45C[C@@H]4CN(C4CCOCC4)C5)cc3)cnc2N)CC1 [Example 14]
(b) N#CCCN1C[C@@H]2C[C@]2(c2ccc(-c3cnc(N)c(C(=O)N[C@H]4CC[C@H](O)CC4)c3)cc2)C1 [Example 51]
(c) C[C@H](c1ccc(-c2cnc(N)c(C(=O)N[C@H]3CC[C@](C)(O)CC3)c2)cc1)N1CC2(COC2)C1 [Example 59]
(d) C[C@@H](c1ccc(-c2cnc(N)c(C(=O)N[C@H]3CC[C@H](O)CC3)c2)cc1)N1CC2(COC2)C1 [Example 4]
Could you please order the items by IC50, going from the lowest number to the highest? Rank them, then answer with their labels in that order.
b, d, a, c
(b: 64 nM, d: 108 nM, a: 205 nM, c: 405 nM)

(I) CC(C)(O)C12CC(NC(=O)c3cc(-c4ccc([C@@]56C[C@@H]5CN(C5CCOCC5)C6)cc4)cnc3N)(C1)C2 [Example 83]
(II) Nc1ncc(-c2ccc([C@@]34C[C@@H]3CN(C3CCOCC3)C4)cc2)cc1C(=O)NC12CCC(O)(CC1)CC2 [Example 34]
(III) Nc1ncc(-c2ccc([C@@]34C[C@@H]3CN(CCC(F)(F)F)C4)cc2)cc1C(=O)N[C@H]1CC[C@H](O)CC1 [Example 47]
Could you please order the items by IC50, going from the lowest number to the highest? Rank them, then answer with their labels in that order.
II, III, I
